Test system: SARS-CoV-2
assay_remarks: Medication use in COVID-19 positive and negative patients (retrospective propensity-score-matched study of hospitalized patients)
Format: in vivo, human
measurement_parameters: drug use group of PS-matched sample; hospitalized patients Jan. 1, 2020 to Dec. 30, 2020
Assignment: determine reported SARS-CoV-2 Positive Test Result, percentage of patients (infection rate) for the given compounds.

Endpoint output: SARS-CoV-2 Positive Test Result, percentage of patients (infection rate) of CN(C)CC/C=C1/c2ccccc2COc2ccc(CC(=O)O)cc21 [Olopatadine] . Value?
18.75%

Name the reported SARS-CoV-2 Positive Test Result, percentage of patients (infection rate) value associated with the compound O=C(O)COCCN1CCN(C(c2ccccc2)c2ccc(Cl)cc2)CC1 (stereo not drawn) [Cetirizine]
17.97%

Recorded SARS-CoV-2 Positive Test Result, percentage of patients (infection rate) for CN(C)CCC(c1ccc(Br)cc1)c1ccccn1 (stereo not drawn) [Brompheniramine] , please?
33.33%

Data request, read-out SARS-CoV-2 Positive Test Result, percentage of patients (infection rate), for CCOC(=O)N1CCC(=C2c3ccc(Cl)cc3CCc3cccnc32)CC1 [Loratadine]
18.65%

Using the record for CN(C)CCC(c1ccc(Cl)cc1)c1ccccn1 (stereo not drawn) [Chlorpheniramine] , report its SARS-CoV-2 Positive Test Result, percentage of patients (infection rate).
16.67%

Consider the compound CN/C(=N/CCSCc1nc[nH]c1C)NC#N [Cimetidine] and give its measured SARS-CoV-2 Positive Test Result, percentage of patients (infection rate).
35.71%

Endpoint output: SARS-CoV-2 Positive Test Result, percentage of patients (infection rate) of CC(C)(C(=O)O)c1ccc(C(O)CCCN2CCC(C(O)(c3ccccc3)c3ccccc3)CC2)cc1 (stereo not drawn) [Fexofenadine] . Value?
18.92%

Which SARS-CoV-2 Positive Test Result, percentage of patients (infection rate) is listed for CN1CCC(=C2c3ccccc3CC(=O)c3sccc32)CC1 [Ketotifen] ?
0 (0%)

Item under review: CN(C)CCOC(c1ccccc1)c1ccccc1 [Diphenhydramine] . Reported SARS-CoV-2 Positive Test Result, percentage of patients (infection rate)?
12.8%

* * *

System: SARS-CoV-2
assay_remarks: Medication use in COVID-19 positive and negative patients (retrospective propensity-score-matched study of hospitalized patients)
Format: in vivo, human
measurement_parameters: drug use group of PS-matched sample; hospitalized patients Jan. 1, 2020 to Dec. 30, 2020
attribute_measured: SARS-CoV-2 Positive Test Result, percentage of patients (infection rate) (%)
The reply should be a number in %, with the unit left off.

For the compound NC(N)=Nc1nc(CSCCC(N)=NS(N)(=O)=O)cs1 , what SARS-CoV-2 Positive Test Result, percentage of patients (infection rate) is on record?
18.87

Dear colleague, I am looking for the recorded SARS-CoV-2 Positive Test Result, percentage of patients (infection rate) of the following compound: CNC(=C[N+](=O)[O-])NCCSCc1ccc(CN(C)C)o1
15.29

So what does the record say about SARS-CoV-2 Positive Test Result, percentage of patients (infection rate) for OCCOCCN1CCN(C(c2ccccc2)c2ccc(Cl)cc2)CC1 (centres unmarked) [Hydroxyzine] ?
12.62

What measured SARS-CoV-2 Positive Test Result, percentage of patients (infection rate) goes with O=C(O)COCCN1CCN([C@H](c2ccccc2)c2ccc(Cl)cc2)CC1 ?
15.38

So what's the measured SARS-CoV-2 Positive Test Result, percentage of patients (infection rate) for this one? CN1CCCC(n2nc(Cc3ccc(Cl)cc3)c3ccccc3c2=O)CC1 (centres unmarked)
7.69
